Here, each record is paired with measured Freeze-Thaw Accuracy [%] data.
Assay Remarks: Freeze-thaw stability in spiked pooled human plasma
Type: physicochemical
Study Conditions: validation standard LLOV

Compound: CS(=O)(=O)CCNCc1ccc(-c2ccc3ncnc(Nc4ccc(OCc5cccc(F)c5)c(Cl)c4)c3c2)o1 [Lapatinib]
Freeze-Thaw Accuracy [%], %: 86.5
--
Compound: COC(=O)c1ccc2c(c1)NC(=O)/C2=C(\Nc1ccc(N(C)C(=O)CN2CCN(C)CC2)cc1)c1ccccc1 [Nintedanib]
Freeze-Thaw Accuracy [%], %: 93.2
--
Compound: COc1cc2ncnc(Nc3ccc(F)c(Cl)c3)c2cc1NC(=O)/C=C/CN1CCCCC1 [Dacomitinib]
Freeze-Thaw Accuracy [%], %: 89.8
--
Compound: CS(=O)(=O)c1ccc(C(=O)Nc2ccc(Cl)c(-c3ccccn3)c2)c(Cl)c1 [Vismodegib]
Freeze-Thaw Accuracy [%], %: 77.6
--
Compound: CC[C@H](Nc1ncnc2[nH]cnc12)c1nc2cccc(F)c2c(=O)n1-c1ccccc1 [Idelalisib]
Freeze-Thaw Accuracy [%], %: 110.6
--
Compound: CN(C)C(=O)c1cc2cnc(Nc3ccc(N4CCNCC4)cn3)nc2n1C1CCCC1 [Ribociclib]
Freeze-Thaw Accuracy [%], %: 86.3
--
Compound: C#Cc1cccc(Nc2ncnc3cc(OCCOC)c(OCCOC)cc23)c1 [Erlotinib]
Freeze-Thaw Accuracy [%], %: 113.3
--
Compound: Cc1ccc(NC(=O)c2ccc(CN3CCN(C)CC3)cc2)cc1Nc1nccc(-c2cccnc2)n1 [Imatinib]
Freeze-Thaw Accuracy [%], %: 100.6
--
Compound: CN(C)C/C=C/C(=O)Nc1cc2c(Nc3ccc(F)c(Cl)c3)ncnc2cc1O[C@H]1CCOC1 [Afatinib]
Freeze-Thaw Accuracy [%], %: 93.5
--
Compound: Cc1cn(-c2cc(NC(=O)c3ccc(C)c(Nc4nccc(-c5cccnc5)n4)c3)cc(C(F)(F)F)c2)cn1 [Nilotinib]
Freeze-Thaw Accuracy [%], %: 92.8
--
Compound: COC(=O)N[C@@H](C)CNc1nccc(-c2cn(C(C)C)nc2-c2cc(Cl)cc(NS(C)(=O)=O)c2F)n1 [Encorafenib]
Freeze-Thaw Accuracy [%], %: 90.4
--
Compound: Cc1cc(Nc2ncc(Cl)c(Nc3ccccc3S(=O)(=O)C(C)C)n2)c(OC(C)C)cc1C1CCNCC1 [Ceritinib]
Freeze-Thaw Accuracy [%], %: 99.9
--
Compound: C=CC(=O)N1CCC[C@@H](n2nc(-c3ccc(Oc4ccccc4)cc3)c3c(N)ncnc32)C1 [Ibrutinib]
Freeze-Thaw Accuracy [%], %: 100.2
--
Compound: CC(=O)Nc1cccc(-n2c(=O)n(C3CC3)c(=O)c3c(Nc4ccc(I)cc4F)n(C)c(=O)c(C)c32)c1 [Trametinib]
Freeze-Thaw Accuracy [%], %: 93.8
--
Compound: N#CC[C@H](C1CCCC1)n1cc(-c2ncnc3[nH]ccc23)cn1 [Ruxolitinib]
Freeze-Thaw Accuracy [%], %: 92.5
--
Compound: Nc1cccc2c1CN(C1CCC(=O)NC1=O)C2=O (stereo not shown) [Lenalidomide]
Freeze-Thaw Accuracy [%], %: 91.0
